# Test system: Salmonella typhi
# Protocol text: Antibacterial activity against Salmonella enterica subsp. enterica serovar Typhi after 24 hr by two-fold serial dilution method
# Format: functional

Compound	MIC (µg/mL)
Cc1ccc(C2C/C(=N/OCc3ccccc3)C(C)C(c3ccc(C)cc3)N2C)cc1 (stereo unspecified)	50
COc1ccc(C2C/C(=N/OCc3ccccc3)C(C)C(c3ccc(OC)cc3)N2C)cc1 (stereo unspecified)	50
COc1ccc(C2CC(=NOCc3ccccc3)CC(c3ccc(OC)cc3)N2C)cc1 (stereo unspecified)	50
CC1/C(=N\OCc2ccccc2)CC(c2ccccc2)N(C)C1c1ccccc1 (stereo unspecified)	100
Cc1ccc(C2CC(=NOCc3ccccc3)CC(c3ccc(C)cc3)N2C)cc1 (stereo unspecified)	100
CC1/C(=N\OCc2ccccc2)CC(c2ccc(Cl)cc2)N(C)C1c1ccc(Cl)cc1 (stereo unspecified)	25
CN1C(c2ccccc2)CC(=NOCc2ccccc2)CC1c1ccccc1 (stereo unspecified)	100
CCC1/C(=N\OCc2ccccc2)CC(c2ccccc2)N(C)C1c1ccccc1 (stereo unspecified)	50
CN1C(c2ccc(Cl)cc2)CC(=NOCc2ccccc2)CC1c1ccc(Cl)cc1 (stereo unspecified)	100
O=C(O)c1cn(C2CC2)c2cc(N3CCNCC3)c(F)cc2c1=O	50
CC(C)C1/C(=N\OCc2ccccc2)CC(c2ccccc2)N(C)C1c1ccccc1 (stereo unspecified)	50
